target: human 11βHSD1 enzyme (Homo sapiens); construct: a construct containing full-length human 11βHSD1 enzyme (in pCMVHyg); experiment: HeLa GRE4-βGal/11βHSD1 cell reporter assay (cortisone to cortisol, β-galactosidase readout); conditions: HeLa GRE4-βGal/11βHSD1 cells, cortisone 1 μM, overnight incubation, absorbance at 570 nm
Sequence (P28845 whole entry): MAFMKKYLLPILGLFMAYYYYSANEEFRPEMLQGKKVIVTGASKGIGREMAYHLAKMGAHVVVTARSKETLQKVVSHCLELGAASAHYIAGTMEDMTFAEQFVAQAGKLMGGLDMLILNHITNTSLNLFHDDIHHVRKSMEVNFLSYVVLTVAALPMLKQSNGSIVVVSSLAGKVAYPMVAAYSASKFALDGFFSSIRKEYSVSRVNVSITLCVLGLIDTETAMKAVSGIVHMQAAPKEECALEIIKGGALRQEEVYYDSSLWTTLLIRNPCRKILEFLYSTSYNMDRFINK
Observation type: pIC50
The meaning of pIC50 here: minus log10 of the concentration in molar units.

Solved cases (2 shown):
| Molecule | Target or test system | Measured result |
| --- | --- | --- |
| CC(=O)Nc1ccc(OCC(=O)c2ccc(Cl)cc2)cc1 [Example 155] | human 11βHSD1 enzyme (Homo sapiens) | 6.81 |
| O=C(CS(=O)(=O)N1CCCC1)c1ccc(F)cc1 [Example 79] | human 11βHSD1 enzyme (Homo sapiens) | 7.03 |

Next molecule, please.
**Query** Please give the measured pIC50 for this molecule: Cc1ccc(C(=O)Cc2ccsc2)cc1 [Example 3]
**Result** 7.11

---

Below, each of the molecules is paired with its reported melting point value.

Solved cases (5 shown):
| Molecule | Observation type | Measured result |
| --- | --- | --- |
| O=C(CS(=O)(=O)c1ccccc1)c1ccccn1 | melting point | 101 to 103 °C |
| O=C(CCc1ccc(F)cc1)c1ccc(C(F)(F)F)cc1 | melting point | 66 to 67 °C |
| O=C(c1ccc(Cl)cc1)C(Cn1cncn1)c1ccc(Cl)cc1 (stereo not shown) [Reference Example 16] | melting point | 126 to 128 °C |
| Cc1ccc(C(=O)Cc2ccccc2)cc1 [Reference Example 11, (Benzyl)-(4-methylphenyl)-ketone] | melting point | 107 to 111 °C |
| Cc1ccc(CC(C(=O)c2ccccc2)N2CCCCC2)cc1 (stereo not shown) | melting point | 71 to 72 °C |

**Query** Please give the measured melting point for this molecule: Cc1ccc(C(=O)CCc2ccc(N3CCN(c4ccncc4)CC3)cc2)cc1 [Reference Example 55]
**Result** 114 to 115 °C

**Query** Please give the measured melting point for this molecule: COc1ccc(C(=O)Cc2ccccc2)cc1 [Reference Example 5, (4-Methoxyphenyl)-(benzyl)-ketone]
**Result** 68 to 69 °C

---

Below, each of the compounds is paired with its reported melting point value.

Solved cases (5 shown):
| Compound | melting point |
| --- | --- |
| O=C(c1ccccc1)C(Cc1ccc(Cl)cc1)c1cccnn1 (stereo not drawn) | 140 to 142 °C |
| O=C(Cc1ccc(Cl)c(Cl)c1)c1ccc(Cl)cc1 | 99 to 103 °C |
| O=C(Cc1ccc(Br)cc1)c1ccc(Cl)cc1 | 125 to 126 °C |
| O=C(Cc1ccc(Cl)cc1)c1ccc(Br)cc1 [Reference Example 3, (4-Bromophenyl)-(4-chlorobenzyl)-ketone] | 128 to 129 °C |
| O=C(c1cccnc1)C(Cc1ccc(F)cc1)c1ccccc1 (stereo not drawn) | 100 to 102 °C |

**Query** Please give the measured melting point for this compound: `O=C(Cn1cnc2ccccc21)c1ccc(Cl)cc1Cl`
**Result** 130 to 132 °C

Values compiled from patent US20050272036A1.
